Every entry's value here was drawn from paper PMC10786891.

# measurement_target: T1, EsCas13d, nuclease-dead (Eubacterium siraeum, UniProt B0MS50, R295A;H300A;R849A;H854A)
# T1 sequence: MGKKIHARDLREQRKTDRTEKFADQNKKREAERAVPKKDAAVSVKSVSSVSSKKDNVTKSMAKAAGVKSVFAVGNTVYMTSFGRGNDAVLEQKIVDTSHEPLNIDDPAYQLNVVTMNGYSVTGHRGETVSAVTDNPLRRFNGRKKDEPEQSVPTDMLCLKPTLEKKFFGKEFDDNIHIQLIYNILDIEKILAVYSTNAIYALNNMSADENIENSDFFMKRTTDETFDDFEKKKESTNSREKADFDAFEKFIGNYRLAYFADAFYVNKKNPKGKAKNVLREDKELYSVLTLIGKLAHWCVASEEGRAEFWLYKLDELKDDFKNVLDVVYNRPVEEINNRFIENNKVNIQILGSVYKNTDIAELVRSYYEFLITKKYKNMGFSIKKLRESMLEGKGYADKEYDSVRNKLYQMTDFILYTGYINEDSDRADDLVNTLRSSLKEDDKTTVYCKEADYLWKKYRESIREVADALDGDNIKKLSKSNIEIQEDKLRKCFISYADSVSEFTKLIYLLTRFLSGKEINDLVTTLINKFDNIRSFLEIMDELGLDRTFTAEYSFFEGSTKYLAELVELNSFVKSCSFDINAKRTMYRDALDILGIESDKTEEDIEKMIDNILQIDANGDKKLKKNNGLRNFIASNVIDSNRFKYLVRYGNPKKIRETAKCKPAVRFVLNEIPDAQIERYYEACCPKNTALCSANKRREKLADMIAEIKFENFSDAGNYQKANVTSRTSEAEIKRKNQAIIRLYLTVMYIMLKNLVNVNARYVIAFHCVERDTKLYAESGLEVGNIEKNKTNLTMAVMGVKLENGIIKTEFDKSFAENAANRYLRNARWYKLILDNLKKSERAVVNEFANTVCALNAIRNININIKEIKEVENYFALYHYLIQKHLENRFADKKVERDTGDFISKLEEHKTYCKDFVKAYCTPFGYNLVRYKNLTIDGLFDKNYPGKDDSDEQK
# protocol_summary: crRNA (strand 1, pre-loaded); Mg2+; 40 mM Tris-HCl pH 7.5, 150 mM NaCl, 6 mM MgCl2, 1 mM DTT, 0.1% Tween-20, 0.2 mg/ml BSA; 25 C; 10 min per concentration, then washed
# run_parameters: tags: His6-TwinStrep-SUMO cleaved; N-terminal SNAP kept (SNAP-Surface 488); label: 3' end held by stalled T7 RNA polymerase
Field: Kd. Provide a value for each of the binders that follow.
Your answer should be a plain number; it is taken to be in nM.

Prompt: Recorded Kd for target 3 insA 3' of 6,insA 3' of 6 (mixed) RNA 1: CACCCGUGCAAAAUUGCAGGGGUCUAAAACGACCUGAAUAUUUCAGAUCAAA RNA 2: GGGAAUGGAUCCACAUCUACGAAUUCGUUUUUGAUCUGAAAUAUUCAAAGGUCUGCAGAUCGGAAGAGCACACGU , please?
Completion: 4.96

Prompt: Recorded Kd for target 1 A1U,C7G (mixed) RNA 1: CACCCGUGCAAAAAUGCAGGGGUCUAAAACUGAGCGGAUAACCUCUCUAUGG RNA 2: GGGAAUGGAUCCACAUCUACGAAUUCGUACCAUAGAGAGGUUAUGCGCUCUCCGAGAUCGGAAGAGCACACGU , please?
Completion: 9.9

Prompt: Recorded Kd for target 1 insA 3' of 17 (mixed) RNA 1: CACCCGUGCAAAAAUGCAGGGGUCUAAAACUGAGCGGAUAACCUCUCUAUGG RNA 2: GGGAAUGGAUCCACAUCUACGAAUUCGUACCAUAGAAGAGGUUAUCCGCUCACCGAGAUCGGAAGAGCACACGU , please?
Completion: 11.8

Prompt: Recorded Kd for target 1 G13A,C22A (mixed) RNA 1: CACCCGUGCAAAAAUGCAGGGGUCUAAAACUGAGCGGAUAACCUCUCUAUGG RNA 2: GGGAAUGGAUCCACAUCUACGAAUUCGUAACAUAGAGAAGUUAUCCGCUCACCGAGAUCGGAAGAGCACACGU , please?
Completion: 9.6

Prompt: Recorded Kd for target 1 insU 3' of 18,insC 3' of 8 (mixed) RNA 1: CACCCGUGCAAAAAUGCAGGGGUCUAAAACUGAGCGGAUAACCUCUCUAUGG RNA 2: GGGAAUGGAUCCACAUCUACGAAUUCGUACCAUAUGAGAGGUUAUCCCGCUCACCGAGAUCGGAAGAGCACACGU , please?
Completion: 53

Prompt: Recorded Kd for target 1 G15A,U19C (mixed) RNA 1: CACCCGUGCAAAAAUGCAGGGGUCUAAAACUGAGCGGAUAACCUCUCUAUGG RNA 2: GGGAAUGGAUCCACAUCUACGAAUUCGUACCACAGAAAGGUUAUCCGCUCACCGAGAUCGGAAGAGCACACGU , please?
Completion: 61

Prompt: Recorded Kd for target 1 U10A,G15C (mixed) RNA 1: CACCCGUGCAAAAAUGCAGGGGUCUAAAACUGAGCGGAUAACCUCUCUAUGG RNA 2: GGGAAUGGAUCCACAUCUACGAAUUCGUACCAUAGACAGGUAAUCCGCUCACCGAGAUCGGAAGAGCACACGU , please?
Completion: 98

Prompt: Recorded Kd for target 1 insC 3' of 22,insA 3' of 21 (mixed) RNA 1: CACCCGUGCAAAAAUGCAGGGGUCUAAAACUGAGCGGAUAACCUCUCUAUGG RNA 2: GGGAAUGGAUCCACAUCUACGAAUUCGUACCCAAUAGAGAGGUUAUCCGCUCACCGAGAUCGGAAGAGCACACGU , please?
Completion: 20.7

Prompt: Recorded Kd for target 2 MT 5'PFS AAC 3'PFS AUC (mixed) RNA 1: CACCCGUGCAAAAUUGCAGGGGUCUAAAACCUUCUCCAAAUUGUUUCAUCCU RNA 2: GGGAAUGGAUCCACAUCUACGAAUUCAACAGGAUGAAACAAUUUGGAGAAGAUCAGAUCGGAAGAGCACACGU , please?
Completion: 3.8

Prompt: Recorded Kd for target 2 MT 5'PFS GAG 3'PFS CUA (mixed) RNA 1: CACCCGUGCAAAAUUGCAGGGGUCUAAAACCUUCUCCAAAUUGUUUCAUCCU RNA 2: GGGAAUGGAUCCACAUCUACGAAUUCGAGAGGAUGAAACAAUUUGGAGAAGCUAAGAUCGGAAGAGCACACGU , please?
Completion: 7.9

Prompt: Recorded Kd for target 3 G3A,G4A (mixed) RNA 1: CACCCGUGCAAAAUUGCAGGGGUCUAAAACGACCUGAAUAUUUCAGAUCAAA RNA 2: GGGAAUGGAUCCACAUCUACGAAUUCGUUUUUGAUCUGAAAUAUUCAAAUCUGCAGAUCGGAAGAGCACACGU , please?
Completion: 8.7

Prompt: Recorded Kd for target 1 insG 3' of 20,insA 3' of 19 (mixed) RNA 1: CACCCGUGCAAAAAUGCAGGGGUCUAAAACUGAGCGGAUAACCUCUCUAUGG RNA 2: GGGAAUGGAUCCACAUCUACGAAUUCGUACCAGUAAGAGAGGUUAUCCGCUCACCGAGAUCGGAAGAGCACACGU , please?
Completion: 45

Prompt: Recorded Kd for target 1 insC 3' of 3,insC 3' of 1 (mixed) RNA 1: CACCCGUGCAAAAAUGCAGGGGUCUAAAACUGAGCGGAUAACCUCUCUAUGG RNA 2: GGGAAUGGAUCCACAUCUACGAAUUCGUACCAUAGAGAGGUUAUCCGCUCCACCCGAGAUCGGAAGAGCACACGU , please?
Completion: 15.8

Prompt: Recorded Kd for target 1 del9 (mixed) RNA 1: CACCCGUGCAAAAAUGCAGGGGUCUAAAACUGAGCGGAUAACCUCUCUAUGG RNA 2: GGGAAUGGAUCCACAUCUACGAAUUCGUACCAUAGAGAGGUUUCCGCUCACCGAGAUCGGAAGAGCACACGU , please?
Completion: 11.5

Prompt: Recorded Kd for target 1 insG 3' of 9,insU 3' of 2 (mixed) RNA 1: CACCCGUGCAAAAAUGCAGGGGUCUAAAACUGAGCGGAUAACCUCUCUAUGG RNA 2: GGGAAUGGAUCCACAUCUACGAAUUCGUACCAUAGAGAGGUUAGUCCGCUCUACCGAGAUCGGAAGAGCACACGU , please?
Completion: 18.9
